Where do the numbers come from? From patent US8178506B2.

test system: differentiated adipocytes; assay: Hallmark genes and triglycerides in differentiated adipocytes; format: cell-based, human; settings: Table 28; differentiated adipocytes transfected day nine post-differentiation; 250 nM oligonucleotide
In the oligonucleotide strings, read from the 5' end, every base follows the letter of its sugar. An asterisk marks phosphorothioate; unmarked linkages are phosphodiester. Other units and linkages are bracketed, terminal groups are in braces. A string of capitals states the bases alone. e = 2'-O-(2-methoxyethyl) (MOE); [5mC] = 5-methylcytosine
Exercise: state measured aP2 for each of the substances provided.
Lab note: jot down the number only; don't add units.

Record request: aP2 value, item 327954 (antisense eA*e[5mC]*eA*eA*eA*eG*eT*eT*e[5mC]*eT*eG*eT*eG*eA*eT*eG*e[5mC]*eA*e[5mC]*eT*eG*eA) [compound 327954]
1.23

Another substance to check: 327903 (antisense eA*eA*e[5mC]*eT*eA*eT*eA*e[5mC]*eA*eA*e[5mC]*e[5mC]*eT*eA*e[5mC]*eT*eA*e[5mC]*e[5mC]*eT*e[5mC]*eA) [compound 327903]
0.56

Another substance to check: 327892 (antisense eA*e[5mC]*eT*eT*eT*e[5mC]*eG*eG*eT*eT*eA*eT*e[5mC]*eT*eA*eG*e[5mC]*eT*eT*eT*eA) [compound 327892]
0.81

Another substance to check: 327890 (antisense eA*eG*e[5mC]*eA*e[5mC]*eA*eA*eA*e[5mC]*eT*eA*e[5mC]*eT*eA*e[5mC]*e[5mC]*eT*e[5mC]*eA) [compound 327890]
0.35

Another substance to check: 338664 (antisense e[5mC]*eA*eG*eA*e[5mC]*eT*e[5mC]*e[5mC]*e[5mC]*eA*eA*e[5mC]*eT*eG*eA*e[5mC]*e[5mC]*eA*eG*eA) [compound 338664]
0.77

Another substance to check: 327919 (antisense eG*eA*eA*eA*e[5mC]*e[5mC]*e[5mC]*eA*eG*e[5mC]*eA*eG*eA*e[5mC]*eA*eA*eT*eG*eT*eA*eG*e[5mC]*eT) [compound 327919]
1.20

###

test system: PEPCK-c; experiment: PEPCK-c mRNA expression in HepG2 cells; assay type: cell-based, human; conditions: Experiment 2, insulin treated: HepG2 cells transfected with oligomeric compound, 1 nM insulin for four hours; UTC + 1 nM insulin = 100
In the oligonucleotide strings, read from the 5' end, every base follows the letter of its sugar. An asterisk marks phosphorothioate; unmarked linkages are phosphodiester. Other units and linkages are bracketed, terminal groups are in braces. A string of capitals states the bases alone. e = 2'-O-(2-methoxyethyl) (MOE); [5mC] = 5-methylcytosine; d = 2'-deoxy (DNA)
Binarize PEPCKc mRNA expression at 90; below is T, at or above is F.

Is the reported PEPCKc mRNA expression for 327963 (antisense eA*eA*e[5mC]*e[5mC]*eT*eA*eT*e[5mC]*e[5mC]*eT*eG*eA*eA*eT*eT*eA*e[5mC]*eT*eT*eG*eA*eA) [compound 327963] strictly below 90?
F

Another substance to check: 328358 (eA*eG*eT*eT*eT*dG*dA*dA*dG*dT*dG*dT*d[5mC]*dA*d[5mC]*eA*eG*e[5mC]*eG*e[5mC]) [compound 328358]
F

Another substance to check: 327920 (antisense eG*eA*eG*eA*e[5mC]*e[5mC]*e[5mC]*eA*eG*eT*eA*eG*e[5mC]*e[5mC]*eA*eG*eA*eT*eG*eT*eA*eG*e[5mC]*eT) [compound 327920]
T

Another substance to check: 328397 (antisense eT*eT*eG*eA*eT*d[5mC]*d[5mC]*dA*dT*dA*dT*dG*d[5mC]*dA*dA*e[5mC]*eA*eA*eG*eG) [compound 328397]
T

Another substance to check: 328343 (eT*e[5mC]*eG*eA*eT*dT*dT*dA*dG*dT*dT*dA*dT*d[5mC]*dT*eA*eA*eA*eA*eA) [compound 328343]
T

Another substance to check: 328761 (antisense eG*e[5mC]*eA*eG*eG*d[5mC]*dT*dA*dA*dA*dA*dG*dA*dA*dA*eT*eA*eA*eG*e[5mC]) [compound 328761]
T

Another substance to check: 328776 (antisense eT*e[5mC]*e[5mC]*eT*eG*dT*dA*dA*dT*dT*dA*dT*dA*dG*dG*e[5mC]*eT*eA*eG*e[5mC]) [compound 328776]
F

Another substance to check: 328702 (eT*eG*eA*e[5mC]*e[5mC]*dA*d[5mC]*dA*dA*dA*dA*dT*dT*d[5mC]*d[5mC]*eT*eT*eA*e[5mC]*eA; antisense) [compound 328702]
F

###

Exercise: state measured IGFBP1 mRNA expression for each of the substances provided.
test system: IGFBP-1; experiment: IGFBP-1 mRNA expression in HepG2 cells; type: cell-based, human; details: Experiment 2, insulin treated: HepG2 cells transfected with oligomeric compound, 1 nM insulin for four hours; UTC + 1 nM insulin = 100
In the oligonucleotide strings, read from the 5' end, every base follows the letter of its sugar. An asterisk marks phosphorothioate; unmarked linkages are phosphodiester. Other units and linkages are bracketed, terminal groups are in braces. A string of capitals states the bases alone. e = 2'-O-(2-methoxyethyl) (MOE); [5mC] = 5-methylcytosine; d = 2'-deoxy (DNA)
Lab note: jot down the number only; don't add units.

Record request: IGFBP1 mRNA expression value, item 327963 (antisense eA*eA*e[5mC]*e[5mC]*eT*eA*eT*e[5mC]*e[5mC]*eT*eG*eA*eA*eT*eT*eA*e[5mC]*eT*eT*eG*eA*eA) [compound 327963]
111

Another substance to check: 328358 (eA*eG*eT*eT*eT*dG*dA*dA*dG*dT*dG*dT*d[5mC]*dA*d[5mC]*eA*eG*e[5mC]*eG*e[5mC]) [compound 328358]
165

Another substance to check: 327918 (antisense e[5mC]*eT*eA*eG*eT*eA*e[5mC]*eA*eT*e[5mC]*eA*eT*e[5mC]*eT*eA*eT*eA*e[5mC]*eT*eG*eT*eA) [compound 327918]
81

Another substance to check: 328776 (antisense eT*e[5mC]*e[5mC]*eT*eG*dT*dA*dA*dT*dT*dA*dT*dA*dG*dG*e[5mC]*eT*eA*eG*e[5mC]) [compound 328776]
86

###

Exercise: state measured IGFBP1 mRNA for each of the substances provided.
System: IGFBP-1
Test: IGFBP-1 mRNA expression in HepG2 cells
Assay type: cell-based, human
Settings: HepG2 cells, Experiment 1, basal (no insulin), four hours; UTC = 100
Procedure: Approximately 28 hours after transfection, the cells are subjected to serum starvation for a period of 12 to 16 hours, using serum-free growth medium. […] Following insulin treatment (forty-eight hours after transfection), total RNA is harvested from all samples, and the amount of total RNA from each sample is determined using a Ribogreen assay (Invitrogen Corporation, Carlsbad, Calif.). […]
In the oligonucleotide strings, read from the 5' end, every base follows the letter of its sugar. An asterisk marks phosphorothioate; unmarked linkages are phosphodiester. Other units and linkages are bracketed, terminal groups are in braces. A string of capitals states the bases alone. e = 2'-O-(2-methoxyethyl) (MOE); [5mC] = 5-methylcytosine
Lab note: jot down the number only; don't add units.

Record request: IGFBP1 mRNA value, item 341804 (antisense ATCTGCACTGTCAGCACTTT; all 2'-MOE, all phosphorothioate, methylation of C not given here) [compound 341804]
162

Another substance to check: 341805 (antisense ACCCTTATCAGTTCTCCGTCCA; all 2'-MOE, all phosphorothioate, methylation of C not given here) [compound 341805]
105

Another substance to check: 327920 (antisense eG*eA*eG*eA*e[5mC]*e[5mC]*e[5mC]*eA*eG*eT*eA*eG*e[5mC]*e[5mC]*eA*eG*eA*eT*eG*eT*eA*eG*e[5mC]*eT) [compound 327920]
165

###

Exercise: state measured % cells in cell cycle phase: subG1 for each of the substances provided.
system: HeLa cells; experiment: Cell cycle assay in HeLa cells; assay type: cell-based, human; details: HeLa cells, 150 nM oligomeric compound, 48 hours after treatment; relative to untreated control (UTC=100)
e = 2'-O-(2-methoxyethyl) (MOE); d = 2'-deoxy (DNA)
Write down the numeric answer in % and omit the unit.

Record request: % cells in cell cycle phase: subG1 value, item 341785 (antisense GGAGTGAAGACACGGAGCCAGA; all 2'-MOE, all phosphorothioate, methylation of C not given here) [compound 341785]
1148

Another substance to check: 338826 (antisense CGGATCCTGTTACCTCACCA; all 2'-MOE, all phosphorothioate, methylation of C not given here) [compound 338826]
696

Another substance to check: 345373 (AGCCTATCCTGGATTACTTGAA; sugars from the 5' end e5 d10 e7, all phosphorothioate, methylation of C not given here) [compound 345373]
116
